Quick list: Dmax at 25 µM per entry.
molecular target: WIZ (Homo sapiens, UniProt O95785+Q96SW2); construct: expressed in transfected cells; test: Quantification of WIZ protein levels in HiBit tag fusion protein assay (293T cells); type: cell-based; settings: HEK-293T; at 25 uM, 100 − Amax; read-out: % degradation of WIZ (100 − Amax)
Sequence (O95785 whole entry, the tested form may be a part): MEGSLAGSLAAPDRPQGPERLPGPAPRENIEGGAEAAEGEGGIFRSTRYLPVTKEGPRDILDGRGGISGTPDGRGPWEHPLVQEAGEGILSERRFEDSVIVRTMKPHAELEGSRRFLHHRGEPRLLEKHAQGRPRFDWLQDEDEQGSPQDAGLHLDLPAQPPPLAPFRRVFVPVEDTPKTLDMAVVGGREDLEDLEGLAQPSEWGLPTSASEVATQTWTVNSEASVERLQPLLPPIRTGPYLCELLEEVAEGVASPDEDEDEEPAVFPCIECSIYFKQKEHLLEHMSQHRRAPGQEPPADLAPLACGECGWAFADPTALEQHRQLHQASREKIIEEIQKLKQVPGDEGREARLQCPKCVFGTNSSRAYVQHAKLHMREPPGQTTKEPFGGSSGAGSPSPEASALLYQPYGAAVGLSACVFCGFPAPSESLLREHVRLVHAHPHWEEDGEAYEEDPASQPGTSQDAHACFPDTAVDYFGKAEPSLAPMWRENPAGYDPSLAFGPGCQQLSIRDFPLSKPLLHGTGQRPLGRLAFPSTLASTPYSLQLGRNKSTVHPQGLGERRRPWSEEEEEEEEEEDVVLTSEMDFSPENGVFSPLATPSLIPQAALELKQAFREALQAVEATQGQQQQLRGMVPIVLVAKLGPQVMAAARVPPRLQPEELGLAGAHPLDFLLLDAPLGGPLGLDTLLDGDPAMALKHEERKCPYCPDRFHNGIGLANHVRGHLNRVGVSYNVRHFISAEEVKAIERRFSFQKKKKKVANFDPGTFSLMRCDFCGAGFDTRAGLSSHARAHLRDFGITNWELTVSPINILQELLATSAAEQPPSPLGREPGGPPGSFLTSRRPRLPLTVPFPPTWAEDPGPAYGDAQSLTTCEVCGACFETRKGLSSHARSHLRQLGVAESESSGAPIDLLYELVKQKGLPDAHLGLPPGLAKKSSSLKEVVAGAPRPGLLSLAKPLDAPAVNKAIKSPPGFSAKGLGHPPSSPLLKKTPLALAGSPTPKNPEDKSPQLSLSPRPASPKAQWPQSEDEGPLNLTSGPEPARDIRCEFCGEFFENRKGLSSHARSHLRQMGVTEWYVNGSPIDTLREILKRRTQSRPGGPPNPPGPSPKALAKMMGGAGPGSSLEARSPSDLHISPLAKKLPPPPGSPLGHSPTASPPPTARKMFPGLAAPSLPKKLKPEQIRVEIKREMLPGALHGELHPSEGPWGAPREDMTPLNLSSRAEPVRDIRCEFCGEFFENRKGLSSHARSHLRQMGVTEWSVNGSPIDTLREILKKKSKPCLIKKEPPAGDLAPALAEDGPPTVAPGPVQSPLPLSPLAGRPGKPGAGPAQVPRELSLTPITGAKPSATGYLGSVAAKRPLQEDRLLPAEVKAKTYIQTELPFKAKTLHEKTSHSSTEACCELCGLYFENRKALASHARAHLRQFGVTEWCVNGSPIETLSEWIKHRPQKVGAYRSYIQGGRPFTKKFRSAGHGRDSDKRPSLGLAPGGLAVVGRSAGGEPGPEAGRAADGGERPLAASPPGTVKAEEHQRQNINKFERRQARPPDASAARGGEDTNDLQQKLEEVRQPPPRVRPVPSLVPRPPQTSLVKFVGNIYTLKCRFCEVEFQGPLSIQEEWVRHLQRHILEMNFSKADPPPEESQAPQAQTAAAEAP
Sequence (Q96SW2 whole entry, the tested form may be a part): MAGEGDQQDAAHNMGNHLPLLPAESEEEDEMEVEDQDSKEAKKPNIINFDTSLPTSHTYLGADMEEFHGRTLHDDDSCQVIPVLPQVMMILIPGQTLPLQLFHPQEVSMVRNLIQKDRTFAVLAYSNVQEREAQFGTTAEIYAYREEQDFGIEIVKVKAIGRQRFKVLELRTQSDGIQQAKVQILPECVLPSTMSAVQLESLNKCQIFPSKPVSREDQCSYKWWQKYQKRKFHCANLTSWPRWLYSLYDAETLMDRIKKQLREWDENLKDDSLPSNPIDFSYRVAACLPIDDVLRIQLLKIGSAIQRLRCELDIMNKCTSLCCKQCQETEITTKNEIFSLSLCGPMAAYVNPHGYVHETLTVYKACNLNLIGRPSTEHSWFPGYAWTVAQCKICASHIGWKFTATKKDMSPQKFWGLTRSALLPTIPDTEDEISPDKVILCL
Sequence (Q16531 whole entry partner, the tested form may be a part): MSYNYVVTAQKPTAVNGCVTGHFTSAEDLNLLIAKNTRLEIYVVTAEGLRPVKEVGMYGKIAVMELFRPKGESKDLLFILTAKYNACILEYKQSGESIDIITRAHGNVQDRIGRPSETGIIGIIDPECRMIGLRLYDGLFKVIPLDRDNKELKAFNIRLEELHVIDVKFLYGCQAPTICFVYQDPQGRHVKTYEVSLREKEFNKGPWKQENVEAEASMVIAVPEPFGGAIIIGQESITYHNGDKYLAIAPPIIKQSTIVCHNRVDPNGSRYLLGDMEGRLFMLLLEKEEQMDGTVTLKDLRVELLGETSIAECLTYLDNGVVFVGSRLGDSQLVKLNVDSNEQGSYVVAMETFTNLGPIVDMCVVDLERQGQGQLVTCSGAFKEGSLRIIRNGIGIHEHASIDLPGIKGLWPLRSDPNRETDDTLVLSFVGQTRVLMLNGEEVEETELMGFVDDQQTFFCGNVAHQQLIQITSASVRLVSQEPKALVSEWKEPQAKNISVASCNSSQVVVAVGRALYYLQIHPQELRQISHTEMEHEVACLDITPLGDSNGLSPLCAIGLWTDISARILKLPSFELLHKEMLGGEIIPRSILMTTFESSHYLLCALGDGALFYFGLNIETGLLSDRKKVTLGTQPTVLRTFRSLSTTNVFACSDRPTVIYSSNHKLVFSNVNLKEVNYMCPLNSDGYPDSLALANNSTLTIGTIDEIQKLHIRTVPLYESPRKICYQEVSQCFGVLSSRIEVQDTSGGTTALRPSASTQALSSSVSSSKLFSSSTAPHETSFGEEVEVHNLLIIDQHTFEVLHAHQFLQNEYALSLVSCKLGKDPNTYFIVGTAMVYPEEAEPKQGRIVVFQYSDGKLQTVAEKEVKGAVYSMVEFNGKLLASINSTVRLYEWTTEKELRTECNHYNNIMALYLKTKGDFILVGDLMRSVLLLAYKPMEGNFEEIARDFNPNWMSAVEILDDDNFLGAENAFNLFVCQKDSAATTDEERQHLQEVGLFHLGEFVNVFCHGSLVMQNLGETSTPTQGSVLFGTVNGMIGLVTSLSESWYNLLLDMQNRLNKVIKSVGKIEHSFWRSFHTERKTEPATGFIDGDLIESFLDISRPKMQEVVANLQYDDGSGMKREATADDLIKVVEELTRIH
The figure you give is taken to be in %; do not add the unit.

Examples from the recorded data:
{"compound": "O=C1CCC(N2Cc3cc(O[C@@H]4CCCN(C5CCCCC5)C4)ccc3C2=O)C(=O)N1 (stereo partly shown)", "system-under-test": "WIZ (Homo sapiens, UniProt O95785+Q96SW2)", "Dmax at 25 µM, %": 71.9}
{"compound": "CCO[C@H]1C[C@@H](N2CCC[C@@H](Oc3ccc4c(c3)CN(C3CCC(=O)NC3=O)C4=O)C2)C1 (stereo partly shown)", "system-under-test": "WIZ (Homo sapiens, UniProt O95785+Q96SW2)", "Dmax at 25 µM, %": 41.1}
{"compound": "C=CCCN1CCC[C@@H](Oc2ccc3c(c2)CN(C2CCC(=O)NC2=O)C3=O)C1 (stereo partly shown)", "system-under-test": "WIZ (Homo sapiens, UniProt O95785+Q96SW2)", "Dmax at 25 µM, %": 68.6}

Switching to the query record.
Q: Returns the measured Dmax at 25 µM for the input compound. Input: C[C@@H]1C[C@@H](Oc2ccc3c(c2)CN(C2CCC(=O)NC2=O)C3=O)CN(S(C)(=O)=O)C1 (stereo partly shown)
Result: 71.4
